- test details: Acute toxicity of dihydromyricetin, single oral gavage
- Type: in vivo, mice
- measurement parameters: ICR, mouse, in vivo, po
measure name: MTD at 7 days (mg/kg)
Entry rule: numbers only, all in mg/kg.

Value of measured MTD at 7 days for the entry O=C1c2c(O)cc(O)cc2OC(c2cc(O)c(O)c(O)c2)C1O (stereo not shown) [Dihydromyricetin] : 5000
